src = the METLIN SMRT retention time set (Domingo-Almenara et al. 2019)

Form field: RP-LC retention time (one value per entry).
Assay: gradient 5% acetonitrile 3 min, to 50% in 2 min, to 85% in 15 min, held 3 min, 100 µL/min
Details: column: Zorbax Extend-C18 2.1 x 50 mm; eluents: water / acetonitrile, 0.1% formic acid
MEASURE: RP-LC retention time

• Cc1ccc2nc(-c3ccc(NC(=O)c4cc5cccnc5n(C)c4=O)cc3)sc2c1 = 864 s
• CN(C)C(=O)c1cc2sc(Cl)cc2n1C = 837 s
• Cc1ccc(NC(=O)C2CCCN(S(=O)(=O)c3cn(C(C)C)cn3)C2)c(Cl)c1 (stereo not given) = 834 s
• CN(Cc1ccc(F)cc1Cl)C1CCc2nnc(C3CCOCC3)n2CC1 (stereo not given) = 561 s
• CC1(C(=O)NCc2ccc(F)cc2)Cn2cnc(C(=O)NC3CCCCCC3)c2C(=O)N1C1CC1 (stereo not given) = 823 s
• COc1cccc(Nc2cc(C(=O)N3CCSCC3)nc3ccc(C)cc23)c1 = 694 s
• COc1ccc(CN2CCC3(CC2)CC(C)(O)CCO3)cc1OC (stereo not given) = 583 s
• O=C(NCCCN1CCOCC1)c1ccc2c(c1)N(C(=O)c1ccc(F)cc1)CC2 = 615 s
• O=C(COc1cccc(C(F)(F)F)c1)N1CCN(c2ccc(-c3ccco3)nn2)CC1 = 739 s
• COc1cn2c(cc1=O)C(=O)N(CCNC(=O)C1c3ccccc3Oc3ccccc31)CC2 = 592 s
• COc1ccc(N(CC(O)CNCCC(C)C)S(=O)(=O)c2ccc(C)cc2)cc1 (stereo not given) = 620 s
• COc1ccc(-c2noc(Cc3nnc(-c4ccc(C)c(C)c4)o3)n2)cc1 = 1090 s
• CCc1cc(=O)n(CC(=O)Nc2cccc(F)c2)c(N2CCOCC2)n1 = 763 s
• COC(=O)C1=CN(c2cccc(Br)c2)c2cc(F)ccc2S1(=O)=O = 903 s
• Cc1ccc(-n2nnnc2CNC(=O)COc2ccc(Cl)cc2Cl)cc1C = 931 s
• CCn1cc(CC(=O)NCc2ccc(C)o2)c2cccnc21 = 682 s
• Cc1cc(C)c(C)c(S(=O)(=O)N2CCC(F)(c3nc(CC(C)C)no3)CC2)c1C = 1410 s
• CCCNS(=O)(=O)c1cc(-c2nnc(-c3ccccc3)o2)ccc1OC = 891 s
• COCCN1C(=O)[C@H]2CN(Cc3cccc(Cl)c3F)C[C@H]2C1=O = 685 s
• O=S(=O)(c1ccccc1)N1CCCCC1c1nc(-c2ccccc2)n[nH]1 (stereo not given) = 851 s
